- measurement target: T1, Human CD137 ECD (human)
- T1 construct: also called 4-1BB
- T1 sequence (chain, as listed by the source limits assumed): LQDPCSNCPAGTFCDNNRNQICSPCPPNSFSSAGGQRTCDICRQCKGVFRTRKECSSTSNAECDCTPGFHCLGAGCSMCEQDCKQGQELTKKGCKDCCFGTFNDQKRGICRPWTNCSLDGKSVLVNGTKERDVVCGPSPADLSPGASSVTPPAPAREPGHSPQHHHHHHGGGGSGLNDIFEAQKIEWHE
- assay info: single mutant vs template dBBDu183H
Recorded fold change of affinity values for a group of binders are listed next.
Entry rule: numbers only, all in fold.

binder	fold change of affinity (fold)
H183/L072 VH V100iL (antibody, name in Kabat numbering, V domains shown) VH: QVQLVESGGGLVQPGRSLRLSCAASGFTFSNAWMHWVRQAPGKGLEWVAQIKDKGNAYAAYYAPSVKGRFTISRDDSKNSIYLQMNSLKTEDTAVYYCHYVHYASASTVLPAFGLDAWGQGTTVTVSS VL: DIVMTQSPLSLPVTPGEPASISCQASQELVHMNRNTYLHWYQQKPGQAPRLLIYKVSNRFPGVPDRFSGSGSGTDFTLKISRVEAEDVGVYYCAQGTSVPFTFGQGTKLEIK	0.1

Reported fold change of affinity of H183/L072 VH Y59Q (antibody, name in Kabat numbering, V domains shown) VH: QVQLVESGGGLVQPGRSLRLSCAASGFTFSNAWMHWVRQAPGKGLEWVAQIKDKGNAYAAYQAPSVKGRFTISRDDSKNSIYLQMNSLKTEDTAVYYCHYVHYASASTVLPAFGVDAWGQGTTVTVSS VL: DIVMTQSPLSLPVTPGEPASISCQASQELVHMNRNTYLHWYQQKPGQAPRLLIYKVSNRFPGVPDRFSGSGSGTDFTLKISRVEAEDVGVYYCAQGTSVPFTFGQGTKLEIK : 0.8
